Target: Beta-lactamase (Pseudomonas aeruginosa) (UniProt Q79MP6)
Sequence (Q79MP6 19-246 limits assumed): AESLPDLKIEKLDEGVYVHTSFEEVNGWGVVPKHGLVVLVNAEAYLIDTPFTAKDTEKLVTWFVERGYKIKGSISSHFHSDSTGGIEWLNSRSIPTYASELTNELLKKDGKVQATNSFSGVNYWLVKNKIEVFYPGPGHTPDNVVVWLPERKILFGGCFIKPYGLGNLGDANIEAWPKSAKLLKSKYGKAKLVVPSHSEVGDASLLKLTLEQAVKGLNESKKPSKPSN
Assay: Competitive inhibition of Pseudomonas aeruginosa metallo-beta-lactamase IMP-1 expressed in Escherichia coli BL21(DE3) using CENTA as substrate by spectrophotometric analysis
readout: Kic (µM)

molecule-smiles	readout-number
Cc1ccc(-n2c(-c3ccccc3)c(-c3ccccc3)c3c2ncn2c(=S)[nH]nc32)cc1	15
Cc1ccc(-n2c(-c3ccccc3)c(-c3ccccc3)c3c(N/N=C/c4ccccc4)ncnc32)cc1	18
Cc1ccc(-n2cc(-c3ccccc3)c3c(Cl)ncnc32)cc1	33

[A] Cc1ccc(-n2c(-c3ccccc3)c(-c3ccccc3)c3c(Cl)ncnc32)cc1
[B] COc1ccc(-n2c3c(c(-c4ccccc4)c2-c2ccccc2)C(=C(C#N)C#N)NC=N3)cc1
[C] COc1ccc(-n2c(-c3ccccc3)c(-c3ccccc3)c3c(Cl)ncnc32)cc1
# input Order the records so the highest Kic appears first and the lowest last. Rank the items, then write their labels in that order.
# output B, A, C
(B: 29 µM, A: 19 µM, C: 12 µM)

====

Test system: Klebsiella pneumoniae
Assay: Uncompetitive inhibition of Klebsiella pneumoniae metallo-beta-lactamase IMP-1 expressed in Escherichia coli BL21(DE3) using CENTA as substrate by spectrophotometric analysis
readout: Kiuc (µM)

See these solved cases before continuing.
molecule-smiles	target-entity	units-label	Kiuc
Cc1ccc(-n2cc(-c3ccccc3)c3c(Cl)ncnc32)cc1	Klebsiella pneumoniae	µM	106
COc1ccc(-n2c3c(c(-c4ccccc4)c2-c2ccccc2)C(=C(C#N)C#N)NC=N3)cc1	Klebsiella pneumoniae	µM	225

[1] Cc1ccc(-n2c(-c3ccccc3)c(-c3ccccc3)c3c(Cl)ncnc32)cc1
[2] COc1ccc(-n2c(-c3ccccc3)c(-c3ccccc3)c3c(Cl)ncnc32)cc1
# input Looking only at measured Kiuc, which entry is lower, 1 or 2 ? Reply briefly: the label of your chosen item.
# output 1

====

Test system: Klebsiella pneumoniae
Test: Inhibition of Klebsiella pneumoniae metallo-beta-lactamase IMP-1 expressed in Escherichia coli BL21(DE3) using CENTA as substrate at 10 uM by spectrophotometric analysis
readout: inhibition (%)

molecule-smiles	readout-number
Cc1ccc(-n2cc(-c3ccccc3)c3c(O)ncnc32)cc1	0
COc1ccc(-n2c3c(c(-c4ccccc4)c2-c2ccccc2)C(=C(C#N)C#N)NC=N3)cc1	17
Cc1ccc(-n2cc(-c3ccccc3)c(C#N)c2N)cc1	0

[P] COc1ccc(-n2c(-c3ccccc3)c(-c3ccccc3)c3c(Cl)ncnc32)cc1
[Q] COc1ccc(-n2cc(-c3ccccc3)c(C#N)c2N)cc1
# input Min inhibition? P | Q Lab log: write the label of the selected item as the result.
# output Q
(Q: 0%, P: 15%)

====

Test system: Klebsiella pneumoniae
Experiment: Competitive inhibition of Klebsiella pneumoniae metallo-beta-lactamase IMP-1 expressed in Escherichia coli BL21(DE3) using CENTA as substrate by spectrophotometric analysis
readout: Kic (µM)

Look over these answered cases.
molecule-smiles	readout	readout-number
Cc1ccc(-n2c(-c3ccccc3)c(-c3ccccc3)c3c(Cl)ncnc32)cc1	Kic	19
COc1ccc(-n2c(-c3ccccc3)c(-c3ccccc3)c3c(Cl)ncnc32)cc1	Kic	12
Cc1ccc(-n2c(-c3ccccc3)c(-c3ccccc3)c3c(N/N=C/c4ccccc4)ncnc32)cc1	Kic	18
COc1ccc(-n2c3c(c(-c4ccccc4)c2-c2ccccc2)C(=C(C#N)C#N)NC=N3)cc1	Kic	29

[I] Cc1ccc(-n2cc(-c3ccccc3)c3c(Cl)ncnc32)cc1
[II] Cc1ccc(-n2c(-c3ccccc3)c(-c3ccccc3)c3c2ncn2c(=S)[nH]nc32)cc1
# input Param metric = Kic; output whichever of I , II has the minimum value. # answer = label of selected item
# output II
